Target: P-gp (Homo sapiens)
Sequence (P08183 whole entry): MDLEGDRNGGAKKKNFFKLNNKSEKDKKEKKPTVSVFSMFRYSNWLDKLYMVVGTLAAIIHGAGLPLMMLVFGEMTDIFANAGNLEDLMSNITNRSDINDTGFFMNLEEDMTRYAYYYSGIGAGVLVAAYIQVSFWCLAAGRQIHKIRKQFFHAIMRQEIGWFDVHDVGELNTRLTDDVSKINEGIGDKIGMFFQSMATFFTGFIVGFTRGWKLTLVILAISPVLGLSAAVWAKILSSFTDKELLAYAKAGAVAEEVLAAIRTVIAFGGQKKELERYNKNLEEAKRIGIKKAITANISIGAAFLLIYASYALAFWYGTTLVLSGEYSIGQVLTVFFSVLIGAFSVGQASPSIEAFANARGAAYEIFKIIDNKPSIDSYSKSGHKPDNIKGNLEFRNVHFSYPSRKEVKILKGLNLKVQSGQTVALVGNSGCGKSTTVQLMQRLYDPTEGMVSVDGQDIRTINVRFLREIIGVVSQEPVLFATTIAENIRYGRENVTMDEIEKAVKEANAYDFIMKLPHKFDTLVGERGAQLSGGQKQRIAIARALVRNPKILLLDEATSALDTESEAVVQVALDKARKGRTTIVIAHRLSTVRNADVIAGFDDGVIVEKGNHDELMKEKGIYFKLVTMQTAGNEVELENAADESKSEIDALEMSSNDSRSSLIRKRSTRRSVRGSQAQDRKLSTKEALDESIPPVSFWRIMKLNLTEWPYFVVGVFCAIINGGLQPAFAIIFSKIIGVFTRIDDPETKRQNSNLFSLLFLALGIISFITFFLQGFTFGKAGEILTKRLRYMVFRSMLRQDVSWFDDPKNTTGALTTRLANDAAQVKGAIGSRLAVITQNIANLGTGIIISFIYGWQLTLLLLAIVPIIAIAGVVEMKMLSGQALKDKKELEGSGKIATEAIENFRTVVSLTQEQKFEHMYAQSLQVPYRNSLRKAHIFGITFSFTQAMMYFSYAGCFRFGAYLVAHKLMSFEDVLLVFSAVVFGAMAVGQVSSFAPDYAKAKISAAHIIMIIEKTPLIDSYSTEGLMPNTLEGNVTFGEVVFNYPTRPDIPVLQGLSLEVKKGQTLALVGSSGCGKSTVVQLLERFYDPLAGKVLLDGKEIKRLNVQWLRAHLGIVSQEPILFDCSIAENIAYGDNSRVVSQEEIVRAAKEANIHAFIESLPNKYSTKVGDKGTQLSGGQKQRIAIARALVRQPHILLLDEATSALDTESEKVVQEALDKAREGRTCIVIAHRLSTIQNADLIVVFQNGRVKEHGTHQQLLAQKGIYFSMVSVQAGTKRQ
Experiment Notes: Rhodamine-123 efflux assay in peripheral white blood cells
Measurement Kind: pEC50
Worth noting: pEC50 values are minus log10 of concentrations stated in mol/L.

pEC50 value, target or system P-gp (Homo sapiens), for COc1cc2c(cc1OC)CN(CCc1ccc(NC(=O)c3cc(OC)c(OC)cc3NC(=O)c3cnc4ccccc4c3)cc1)CC2 : 9.11
